The values you see were collected from patent US11111245B2.

ASSAY SYSTEM: CDKs and other kinases (Homo sapiens, UniProt P50613)
Construct: other: CDK7H; residual activity (%) at 10 μM CDK7H; compound at 10 μM
Sequence (P50613 whole entry): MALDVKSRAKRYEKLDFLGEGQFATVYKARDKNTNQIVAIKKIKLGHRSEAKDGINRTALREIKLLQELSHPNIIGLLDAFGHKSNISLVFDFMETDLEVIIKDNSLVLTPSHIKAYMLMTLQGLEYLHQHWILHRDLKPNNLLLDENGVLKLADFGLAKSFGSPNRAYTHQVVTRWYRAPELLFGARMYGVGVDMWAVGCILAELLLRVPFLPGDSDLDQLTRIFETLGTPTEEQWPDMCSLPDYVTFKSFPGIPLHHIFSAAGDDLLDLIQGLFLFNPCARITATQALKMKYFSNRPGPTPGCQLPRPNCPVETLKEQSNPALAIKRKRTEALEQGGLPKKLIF
PROTOCOL NOTES: Radiometric kinase assay (Eurofins Pharma Discovery or Reaction Biology Corporation Kinase Profiler)
Format: biochemical
MEASUREMENT CONDITIONS: CDK7H; read-out: CDK inhibition, Ki (μM) CDK7H
Consider the following compounds and their measured Ki readings.
Field: numeric (µM). Do not append units.

- RECORD SMILES: "Cc1cnc(N2CCC3(CCNC3=O)CC2)nc1-c1cnc2ccc(-c3ccccc3)cn12"
  ASSAY SYSTEM: "CDKs and other kinases (Homo sapiens, UniProt P50613)"
  Ki [µM]: 4.56
- RECORD SMILES: "N[C@H]1CC[C@H](Nc2ncc(Cl)c(-c3cnc4ccc(-c5ccccc5)cn34)n2)CC1"
  ASSAY SYSTEM: "CDKs and other kinases (Homo sapiens, UniProt P50613)"
  Ki [µM]: 0.079
- RECORD SMILES: "CN1CCC(N[C@H]2CC[C@H](Nc3ncc(F)c(-c4cnc5ccc(-c6ccccc6)cn45)n3)CC2)CC1"
  ASSAY SYSTEM: "CDKs and other kinases (Homo sapiens, UniProt P50613)"
  Ki [µM]: 0.099

What does the data say about its Ki? Entry: `Cc1cnc(N[C@H]2CC[C@H](NC(C)C)CC2)nc1-c1cnc2ccc(Nc3cncnc3)cn12`
3.86

Check `Cc1cnc(N[C@H]2CC[C@H](N)CC2)nc1-c1cnc2ccc(Nc3cnccn3)cn12` too.
3.28

Moving on to `COc1ccc(-c2ccc3ncc(-c4nc(N[C@H]5CC[C@H](N)CC5)ncc4Cl)n3c2)cn1`
0.21

Try the compound `N[C@H]1CC[C@H](Nc2ncc(F)c(-c3cnc4ccc(NCc5ccc(F)cc5)cn34)n2)CC1`
0.73

And then `N[C@H]1CC[C@H](Nc2ncc(Cl)c(-c3cnc4ccc(-c5ccncc5)cn34)n2)CC1` , what is it?
0.094

---

ASSAY SYSTEM: CDKs and other kinases (Homo sapiens, UniProt P24941)
Construct: other: CDK2A; residual activity (%) at 10 μM CDK2A; compound at 10 μM
PROTOCOL NOTES: Radiometric kinase assay (Eurofins Pharma Discovery or Reaction Biology Corporation Kinase Profiler)
Type: biochemical
MEASUREMENT CONDITIONS: CDK2A; compound at 10 μM; read-out: residual activity (%) at 10 μM CDK2A
# remaining activity at 10 µM per entry
Give the quantity in %, number only.

Some entries whose results are on file:
- MOLECULE: "Cc1cnc(N[C@]23C[C@@]4(C)C[C@](C)(C[C@](O)(C4)C2)C3)nc1-c1cnc2ccc(-c3ccccc3)cn12 [Compound 100]"
  REPORTED PROPERTY: "remaining activity at 10 µM"
  MEASURE UNIT: "%"
  QUANTITATIVE RESULT: 79
- MOLECULE: "CN1CCC(Nc2ncc(F)c(-c3cnc4ccc(-c5ccccc5)cn34)n2)CC1 [Compound 144]"
  REPORTED PROPERTY: "remaining activity at 10 µM"
  MEASURE UNIT: "%"
  QUANTITATIVE RESULT: 8
- MOLECULE: "Cc1cnc(N2CCC3(CCNC3=O)CC2)nc1-c1cnc2ccccn12 [Compound 124]"
  REPORTED PROPERTY: "remaining activity at 10 µM"
  MEASURE UNIT: "%"
  QUANTITATIVE RESULT: 34

Now look at this entry.
State its remaining activity at 10 µM on CDKs and other kinases (Homo sapiens, UniProt P24941): Cc1cnc(N[C@H]2CC[C@H](C)CC2)nc1-c1cnc2ccc(Nc3cncnc3)cn12 [Compound 152]
5

---

ASSAY SYSTEM: CDKs and other kinases (Homo sapiens)
Construct: other: CDK1B; residual activity (%) at 10 μM CDK1B; compound at 10 μM
PROTOCOL NOTES: Radiometric kinase assay (Eurofins Pharma Discovery or Reaction Biology Corporation Kinase Profiler)
Type: biochemical
MEASUREMENT CONDITIONS: CDK1B; compound at 10 μM; read-out: residual activity (%) at 10 μM CDK1B
Note to self: use yes (1) only for remaining activity at 10 µM readings below 30%; a reading exactly at 30% still gets no (0).

Would you please look over these solved cases?
- COMPOUND: "CN1CCC(Nc2ncc(F)c(-c3cnc4ccc(-c5ccc(S(=O)(=O)N(C)C)cc5)cn34)n2)CC1 [Compound 148]"
  LABEL CLASS: "yes (1)"
- COMPOUND: "Cc1cnc(N[C@H]2CC[C@H](O)CC2)nc1-c1cnc2ccc(-c3ccccc3)cn12 [Compound 105]"
  LABEL CLASS: "yes (1)"
- COMPOUND: "Cc1cnc(N[C@H]2CC[C@H](NS(C)(=O)=O)CC2)nc1-c1cnc2ccc(Nc3cncnc3)cn12 [Compound 126]"
  LABEL CLASS: "yes (1)"
- COMPOUND: "Fc1cnc(NC2CCNCC2)nc1-c1cnc2ccc(-c3ccccc3)cn12 [Compound 143]"
  LABEL CLASS: "yes (1)"
- COMPOUND: "CN1CCC(Nc2ncc(F)c(-c3cnc4ccc(Nc5cncnc5)cn34)n2)CC1 [Compound 149]"
  LABEL CLASS: "yes (1)"
- COMPOUND: "Cc1cnc(N[C@H]2CC[C@H](N)CC2)nc1-c1cnc2ccc(Oc3cncnc3)cn12 [Compound 75]"
  LABEL CLASS: "no (0)"
- COMPOUND: "Fc1cnc(N[C@H]2CC[C@H](N3CCCC3)CC2)nc1-c1cnc2ccc(-c3ccccc3)cn12 [Compound 137]"
  LABEL CLASS: "yes (1)"

Switching to the query record.
Item Cc1cnc(N[C@]23C[C@@]4(C)C[C@](C)(C[C@](O)(C4)C2)C3)nc1-c1cnc2ccc(-c3ccccc3)cn12 [Compound 100] : remaining activity at 10 µM beneath 30%, strictly?
no (0)

---

ASSAY SYSTEM: CDK4/D1 (Homo sapiens)
Sequence (P11802 whole entry): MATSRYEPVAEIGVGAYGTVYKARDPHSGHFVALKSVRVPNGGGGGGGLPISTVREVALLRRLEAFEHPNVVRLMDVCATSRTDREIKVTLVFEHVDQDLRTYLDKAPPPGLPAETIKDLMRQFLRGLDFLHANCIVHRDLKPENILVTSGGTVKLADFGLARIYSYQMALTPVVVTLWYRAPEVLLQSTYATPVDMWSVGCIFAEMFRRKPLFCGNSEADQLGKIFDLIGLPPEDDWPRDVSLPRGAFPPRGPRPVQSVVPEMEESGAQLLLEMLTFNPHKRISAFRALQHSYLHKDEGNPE
Sequence (P24385 whole entry partner): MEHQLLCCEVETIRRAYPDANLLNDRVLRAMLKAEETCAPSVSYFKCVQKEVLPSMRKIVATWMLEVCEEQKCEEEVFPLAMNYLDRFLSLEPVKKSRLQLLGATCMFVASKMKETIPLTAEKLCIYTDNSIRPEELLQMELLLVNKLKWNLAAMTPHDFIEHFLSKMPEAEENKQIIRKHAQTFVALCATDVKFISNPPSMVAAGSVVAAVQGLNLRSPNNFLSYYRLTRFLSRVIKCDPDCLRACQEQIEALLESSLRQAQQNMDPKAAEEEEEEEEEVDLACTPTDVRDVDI
PROTOCOL NOTES: ADP Glo Kinase assay CDK4/D1
Assay type: biochemical
MEASUREMENT CONDITIONS: CDK4D1; compound at 10 μM; read-out: residual activity (%) at 10 μM CDK4D1
REPORTED PROPERTY: remaining activity at 10 µM (%)
Report the value in % with no unit label.

- RECORD SMILES: "O[C@H]1CC[C@H](Nc2ncc(Cl)c(-c3cnc4ccc(-c5ccc(F)cc5)cn34)n2)CC1"
  QUANTITATIVE RESULT: 61
- RECORD SMILES: "N[C@H]1CC[C@H](Nc2ncc(Cl)c(-c3cnc4ccc(-c5ncccc5F)cn34)n2)CC1"
  QUANTITATIVE RESULT: 30
- RECORD SMILES: "Cc1cnc(N[C@H]2CC[C@H](N)CC2)nc1-c1cnc2ccc(NC(=O)c3ccc(F)cc3)cn12"
  QUANTITATIVE RESULT: 77
- RECORD SMILES: "Cc1cnc(N[C@]23C[C@@]4(C)C[C@](C)(C[C@](O)(C4)C2)C3)nc1-c1cnc2ccc(Nc3cccnc3)cn12"
  QUANTITATIVE RESULT: 97
- RECORD SMILES: "N[C@H]1CC[C@H](Nc2ncc(Cl)c(-c3cnc4ccc(NC(=O)c5ccccc5)cn34)n2)CC1"
  QUANTITATIVE RESULT: 73
- RECORD SMILES: "Cc1cnc(N[C@H]2CN3CCC2CC3)nc1-c1cnc2ccc(Nc3cncnc3)cn12"
  QUANTITATIVE RESULT: 91

// switching to the query molecule
GET /values?readout=remaining activity at 10 µM&item= `CCS(=O)(=O)N1CCC(Nc2ncc(F)c(-c3cnc4ccc(-c5ccccc5)cn34)n2)CC1`
61

---

ASSAY SYSTEM: CDK6/D3 (Homo sapiens)
Sequence (Q00534 whole entry): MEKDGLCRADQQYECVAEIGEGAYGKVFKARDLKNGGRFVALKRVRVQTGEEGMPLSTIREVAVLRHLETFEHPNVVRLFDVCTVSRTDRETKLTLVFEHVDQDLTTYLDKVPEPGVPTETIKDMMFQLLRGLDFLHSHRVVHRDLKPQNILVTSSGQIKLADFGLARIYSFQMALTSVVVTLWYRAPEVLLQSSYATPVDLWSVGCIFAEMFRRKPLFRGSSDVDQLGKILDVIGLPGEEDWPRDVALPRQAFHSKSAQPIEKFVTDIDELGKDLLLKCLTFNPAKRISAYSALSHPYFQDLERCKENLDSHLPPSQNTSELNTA
Sequence (P30281 whole entry partner): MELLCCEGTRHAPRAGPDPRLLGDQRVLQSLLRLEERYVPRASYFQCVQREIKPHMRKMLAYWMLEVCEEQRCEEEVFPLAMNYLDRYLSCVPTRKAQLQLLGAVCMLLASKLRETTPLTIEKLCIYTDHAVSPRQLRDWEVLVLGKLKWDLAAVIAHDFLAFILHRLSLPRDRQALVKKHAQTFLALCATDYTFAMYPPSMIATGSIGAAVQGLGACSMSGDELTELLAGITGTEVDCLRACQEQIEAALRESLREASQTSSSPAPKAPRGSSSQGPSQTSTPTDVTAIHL
PROTOCOL NOTES: ADP Glo Kinase assay CDK6/D3
Type: biochemical
MEASUREMENT CONDITIONS: CDK6D3; compound at 10 μM; read-out: residual activity (%) at 10 μM CDK6D3
Reported remaining activity at 10 µM by item:
Report as a plain number; the unit % is understood.

These solved cases illustrate the format of a correct answer.
- COMPOUND: "Cc1cnc(N[C@H]2CC[C@H](N)CC2)nc1-c1cnc2ccc(-c3c(C)noc3C)cn12"
  remaining activity at 10 µM (%): 91
- COMPOUND: "Cc1noc(C)c1-c1ccc2ncc(-c3nc(N[C@H]4CC[C@H](N)CC4)ncc3Cl)n2c1"
  remaining activity at 10 µM (%): 80
- COMPOUND: "Cc1cnc(NC2CCCC(N)C2)nc1-c1cnc2ccc(Nc3cccnc3)cn12 (stereo not drawn)"
  remaining activity at 10 µM (%): 76
- COMPOUND: "Cc1cnc(N[C@]23C[C@@]4(C)C[C@](C)(C[C@](O)(C4)C2)C3)nc1-c1cnc2ccc(-c3ccccc3)cn12"
  remaining activity at 10 µM (%): 84

Find the recorded remaining activity at 10 µM belonging to `N[C@H]1CC[C@H](Nc2ncc(Cl)c(-c3cnc4ccc(-c5ncccc5F)cn34)n2)CC1` and report it.
72

Field entry: `Fc1cnc(N[C@H]2CC[C@H](Nc3ccccn3)CC2)nc1-c1cnc2ccc(-c3ccccc3)cn12`
100

Same question for `Cc1cnc(N[C@H]2CC[C@H](N)CC2)nc1-c1cnc2cc(-c3ccccc3)ccn12` please.
0

Another: `Cc1cnc(NC2CCOCC2)nc1-c1cnc2ccc(Nc3cccnc3)cn12`
45

Ok, now `COc1ccc(-c2ccc3ncc(-c4nc(N[C@H]5CC[C@H](N)CC5)ncc4Cl)n3c2)cc1`
99

Try `Cc1cnc(N[C@H]2CC[C@H](N)CC2)nc1-c1cnc2ccc(Nc3cnccn3)cn12` next.
70

Same again, this time with `N[C@H]1CC[C@H](Nc2ncc(Cl)c(-c3cnc4cc(Nc5cncnc5)ccn34)n2)CC1`
6

Further, for `Cc1cnc(N[C@H]2CC[C@H](N)CC2)nc1-c1cnc2ccc(NC(=O)Cc3ccccc3)cn12` ?
49
